Measured values drawn from the OligoGym collection for this set.

biological target: APOL1; conditions: ASO, A431, 1 µM
After the bases stand the sugars from the 5' end (letter, count) and the backbone: PS all phosphorothioate, else s phosphorothioate and o phosphodiester by linkage. Methylation of C is not given here. e = 2'-O-(2-methoxyethyl) (MOE); k = constrained ethyl (cEt); d = 2'-deoxy (DNA)
Listed next: entries and their corresponding target mRNA inhibition.
Give the value in % but do not write % after it.

Known results for sequences:
Per the records, this sequence ( TTTGTAAGTGCAACCA (sugars kkddddekekeddddd, PS) ) has target mRNA inhibition equal to 96

Per the records, this sequence ( GCTAATTTTCTGACTG (sugars kkddddkekekddddd, PS) ) has target mRNA inhibition equal to 92

Per the records, this sequence ( CTTTATACCAGTGTCT (sugars kekddddeekkddddd, PS) ) has target mRNA inhibition equal to 89

Per the records, this sequence ( GTGTTATATTTGATCC (sugars k2 d4 e3 k2 d5, PS) ) has target mRNA inhibition equal to 98

Per the records, this sequence ( CGTCAATATATTCTTT (sugars kkddddkekekddddd, PS) ) has target mRNA inhibition equal to 90

Per the records, this sequence ( CGTCAATATATTCTTT (sugars kkkddddkdkdkdddd, PS) ) has target mRNA inhibition equal to 93

***
Per the records, this sequence ( TCCTTGCTGCACTGCC (sugars k4 d9 k3, PS) ) has target mRNA inhibition equal to 95

Per the records, this sequence ( GTTATGAAATTATTGG (sugars kkkddddkekeddddd, PS) ) has target mRNA inhibition equal to 85

Per the records, this sequence ( GCATTCAGAATTTCCA (sugars k3 d4 k3 e1 d5, PS) ) has target mRNA inhibition equal to 92

Per the records, this sequence ( TCCGTCAATATATTCT (sugars k2 d4 e3 k2 d5, PS) ) has target mRNA inhibition equal to 93

Per the records, this sequence ( TATTTCTTGATGTGGT (sugars kkkddddkekekdddd, PS) ) has target mRNA inhibition equal to 89

----------
Listed next: entries and their corresponding target mRNA inhibition.
biological target: ANGPTL2; conditions: ASO, 5 µM
After the bases stand the sugars from the 5' end (letter, count) and the backbone: PS all phosphorothioate, else s phosphorothioate and o phosphodiester by linkage. Methylation of C is not given here. l = locked nucleic acid (LNA); d = 2'-deoxy (DNA)
Give me the value, and tack the unit on after it.

Per the records, this sequence ( ACCATTTTGAGATTCCC (sugars l2 d13 l2, PS) ) has target mRNA inhibition equal to 30%

Per the records, this sequence ( CTGGTTGATGATGCGGTTG (sugars l1 d16 l2, PS) ) has target mRNA inhibition equal to 52.7%

Per the records, this sequence ( CCAGTTCCTGAAGAAGTTA (sugars l1 d15 l3, PS) ) has target mRNA inhibition equal to 27.8%

Please find the next sequence below.
Per the records, this sequence ( TGATGATGCGGTTGTA (sugars l3 d11 l2, PS) ) has target mRNA inhibition equal to 73.8%

----------
target: APOL1; details: ASO, A431, 0.0625 µM
After the bases stand the sugars from the 5' end (letter, count) and the backbone: PS all phosphorothioate, else s phosphorothioate and o phosphodiester by linkage. Methylation of C is not given here. e = 2'-O-(2-methoxyethyl) (MOE); k = constrained ethyl (cEt); d = 2'-deoxy (DNA)
measurement.name: target mRNA inhibition (%)
Give the value in % but do not write % after it.

Known results for sequences:
Per the records, this sequence ( GCATTCAGAATTTCCA (sugars k3 d4 k3 e1 d5, PS) ) has target mRNA inhibition equal to 73

Per the records, this sequence ( CGTCAATATATTCTTT (sugars kkddddkekekddddd, PS) ) has target mRNA inhibition equal to 41

Per the records, this sequence ( TCAGATGGGTACTTCT (sugars kkddddekekeddddd, PS) ) has target mRNA inhibition equal to 30

Per the records, this sequence ( TCCGTCAATATATTCT (sugars kkddddekekeddddd, PS) ) has target mRNA inhibition equal to 61

Per the records, this sequence ( TGGTTCAAAAGCAGCA (sugars k2 d4 e3 k2 d5, PS) ) has target mRNA inhibition equal to 68

Per the records, this sequence ( TATTTCTTGATGTGGT (sugars kkkddddkekekdddd, PS) ) has target mRNA inhibition equal to 61

Per the records, this sequence ( TCACATACTCTCTGGG (sugars k4 d9 k3, PS) ) has target mRNA inhibition equal to 24

Per the records, this sequence ( TCCTTGCTGCACTGCC (sugars k4 d9 k3, PS) ) has target mRNA inhibition equal to 67

Please find the next sequence below.
Per the records, this sequence ( GTTATGAAATTATTGG (sugars kkkddddkekeddddd, PS) ) has target mRNA inhibition equal to 42
